- system name: ErbB3 (Homo sapiens, UniProt P21860)
- Construct: gift of Dr. Mark A. Lemmon, University of Pennsylvania School of Medicine
- Sequence (P21860 20-643 limits assumed): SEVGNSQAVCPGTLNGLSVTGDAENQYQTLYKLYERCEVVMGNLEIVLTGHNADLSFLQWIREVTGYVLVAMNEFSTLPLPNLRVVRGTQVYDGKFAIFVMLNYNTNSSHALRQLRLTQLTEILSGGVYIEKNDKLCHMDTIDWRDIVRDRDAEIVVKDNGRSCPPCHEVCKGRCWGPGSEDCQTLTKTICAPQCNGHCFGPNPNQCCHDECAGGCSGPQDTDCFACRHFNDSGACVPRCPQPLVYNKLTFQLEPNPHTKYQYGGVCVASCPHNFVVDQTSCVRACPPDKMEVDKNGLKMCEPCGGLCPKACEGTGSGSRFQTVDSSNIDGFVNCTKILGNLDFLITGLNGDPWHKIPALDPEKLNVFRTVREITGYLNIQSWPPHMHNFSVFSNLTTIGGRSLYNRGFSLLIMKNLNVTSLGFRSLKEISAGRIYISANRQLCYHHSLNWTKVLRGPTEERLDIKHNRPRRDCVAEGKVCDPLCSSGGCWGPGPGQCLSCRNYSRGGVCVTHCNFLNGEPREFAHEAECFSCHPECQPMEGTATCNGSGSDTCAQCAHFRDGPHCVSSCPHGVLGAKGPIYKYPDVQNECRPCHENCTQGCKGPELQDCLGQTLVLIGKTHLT
- assay remarks: Surface plasmon resonance (Biacore) binding to immobilized ErbB3 extracellular domain
- condition details: immobilized extracellular domain, surface plasmon resonance; read-out: KD (μM) ErbB3
Bridge positions count the residues as written; N and C are the ends. Peptide text beside a SMILES is read from it.
Provide the reported Kd of each item.
Numbers only, in µM.

Use the examples below as a reference point.
Ask | Recall and state the measured Kd for CC(C)C[C@@H]1NC(=O)[C@@H](NC(=O)[C@@H](N)Cc2ccc(O)cc2)CSSC[C@@H](C(=O)N[C@@H](Cc2ccc(O)cc2)C(N)=O)NC(=O)CNC(=O)[C@H](C)NC(=O)[C@H](CC(=O)O)NC(=O)[C@H](C)NC(=O)[C@H](Cc2ccc(O)cc2)NC(=O)[C@H](CCCCN)NC(=O)[C@H](Cc2c[nH]c3ccccc23)NC(=O)[C@H](C(C)C)NC1=O [B1-S22-ALG] (H-YCLVWKYADAGCY-NH2; disulfide 2-12) .
Reply | 0.288

Ask | Given CC[C@H](C)[C@@H]1NC(=O)[C@@H]2CCCN2C(=O)[C@@H](NC(=O)[C@@H](N)Cc2ccc(O)cc2)CSSC[C@@H](C(=O)N[C@@H](Cc2ccc(O)cc2)C(N)=O)NC(=O)[C@H](CCC(N)=O)NC(=O)[C@H](C(C)C)NC(=O)[C@H](CC(=O)O)NC(=O)[C@@H]2CCCN2C(=O)[C@H](Cc2ccc(O)cc2)NC(=O)[C@H](CCCCN)NC(=O)[C@H](Cc2ccc(O)cc2)NC1=O [B3-S22-APQ] (H-YCPIYKYPDVQCY-NH2; disulfide 2-12) , respond with its Kd.
Reply | 1.07

Ask | Name the recorded Kd of the compound listed here: C[C@@H]1NC(=O)CNC(=O)[C@H](CCC(=O)O)NC(=O)[C@H](CCC(=O)O)NC(=O)[C@H](CC(=O)O)NC(=O)[C@@H]2CCCN2C(=O)[C@H](Cc2ccccc2)NC(=O)[C@@H](NC(=O)[C@@H](N)Cc2ccc(O)cc2)CSSC[C@@H](C(=O)N[C@@H](Cc2ccc(O)cc2)C(N)=O)NC1=O [B2-S22-AFA, YCFPDEEGACY] (H-YCFPDEEGACY-NH2; disulfide 2-10)
Reply | 0.429

Then this compound:
Ask | Note Kd for the compound shown: CC[C@H](C)[C@@H]1NC(=O)[C@H](Cc2ccccc2)NC(=O)[C@@H](NC(=O)[C@@H](N)Cc2ccc(O)cc2)CSSC[C@@H](C(=O)N[C@@H](Cc2ccc(O)cc2)C(N)=O)NC(=O)[C@H](CC(=O)O)NC(=O)[C@@H]2CCCN2C(=O)[C@H](CC(=O)O)NC(=O)[C@H](C)NC(=O)[C@H](Cc2ccc(O)cc2)NC(=O)[C@H](CCCCN)NC(=O)[C@H](Cc2ccccc2)NC1=O [B4-S22-AFD] (H-YCFIFKYADPDCY-NH2; disulfide 2-12)
Reply | 0.394
